Below are compounds with their MIC as measured on E. coli 31.
READOUT KIND: MIC (µg/mL)

INSERT INTO measurements (compound, readout_kind, display_unit, readout_number) VALUES
  ('CC(C)ON=C(C(=O)NC1C(=O)N2C(C(=O)O)=CCOC12)c1csc(N)n1 (centres unmarked)', 'MIC', 'µg/mL', 0.2),
  ('CON=C(C(=O)NC1C(=O)N2C(C(=O)O)=CCOC12)c1nccc(N)n1 (centres unmarked)', 'MIC', 'µg/mL', 0.025),
  ('CCON=C(C(=O)NC1C(=O)N2C(C(=O)O)=CCOC12)c1csc(N)n1 (centres unmarked)', 'MIC', 'µg/mL', 0.05),
  ('CON=C(C(=O)NC1C(=O)N2C(C(=O)O)=CCOC12)c1csc(N)n1 (centres unmarked)', 'MIC', 'µg/mL', 0.05),
  ('CON=C(C(=O)NC1C(=O)N2C(C(=O)O)=CCOC12)c1nsc(N)n1 (centres unmarked)', 'MIC', 'µg/mL', 0.025);
